test system: TK-10 renal; test: NCI-60 one-dose screen, 48 h (100 = growth as untreated, 0 = no growth, -100 = all killed); settings: 10 µM unless noted
The panel holds about 83,000 compounds, 20% with a hit somewhere; the sample as a whole holds those more often.
Please provide measured growth for the entries that follow.
Lab book: enter the figure in %, no units written.

Give its growth value. Item: O=C1CCCc2nc(Nc3ccc(S(=O)(=O)Nc4ccc([N+](=O)[O-])cc4)cc3)ncc21
105

Give its growth value. Item: COc1cc(-c2nn(C(C)(C)C)cc2-c2ccnc(NCCCNS(=O)(=O)c3ccc(Cl)cc3)n2)ccc1Cl
66.1

Give its growth value. Item: COc1ccc(Oc2ccc(/C=N/NC(=O)CSc3nc4ccccc4c(=O)n3-c3ccc(Cl)cc3)cc2)cc1
96.5

Give its growth value. Item: Nc1nc(-c2cccc([N+](=O)[O-])c2)c(N=Nc2ccc([N+](=O)[O-])cc2Cl)s1
22.7

Give its growth value. Item: O=C1[C@H]2Cc3c([nH]c4ccccc34)[C@@H](c3c(Cl)cccc3Cl)N2C(=O)CN1C1CCN(CC2CCCCC2)CC1
142

Give its growth value. Item: CC(C)C[C@@H]1N[C@@]2(C(=O)Nc3ccccc32)[C@@H](c2ccc(F)cc2)[C@@H]1C(=O)c1ccc(O)cc1
120

Give its growth value. Item: CC/C(=C/c1c(O)cccc1OC)c1ccc2c(OC)cccc2[o+]1
121

Give its growth value. Item: Cc1ccc(-c2nn(-c3ccccc3)cc2/C=C/C(=O)c2ccc(NC(=O)CCCCCCC(=O)NO)cc2)cc1
70.2

Give its growth value. Item: Cc1ccc(-c2cc3nc(C(Cl)Cl)nc(-c4ccco4)n3n2)cc1
29.2

----------
Test system: K-562 leukemia
Experiment: NCI-60 one-dose screen, 48 h (100 = growth as untreated, 0 = no growth, -100 = all killed)
Conditions: 10 µM unless noted
Procedure: Cells are grown in 96 well plates and exposed to the test compound for 48 hours. Compounds are tested at a single concentration, which is 10^-5 M for most compounds. The reported endpoint is percent growth (GI% or GIPRCNT), where numbers from 0 - 100% represent growth inhibition, and numbers from -100% - 0 represent cell death. For example, a value of 40 represents 60% growth inhibition. A value of 0 means no net growth occurred over the course of the experiment. […]
This is part of a sample that, as a whole, favours compounds with a hit. Of some 83,000 tested, about 20% had one in any assay.
Please provide measured growth for the entries that follow.
Lab book: enter the figure in %, no units written.

Give its growth value. Item: CC1(C)CC[C@]2(CN)CC[C@]3(C)C(=CC[C@@H]4[C@@]5(C)CCCNC(C)(C)[C@@H]5CC[C@]43C)[C@H]2C1
3.16

Give its growth value. Item: COc1ccccc1NCc1cccn1Cc1ccc(F)cc1
111

Give its growth value. Item: CCn1c2ccccc2c2cc(-n3nncc3-c3ccccc3)ccc21
10.3

Give its growth value. Item: COc1c(N2CC3CCCNC3C2)c(F)cc2c(=O)c(C(=O)N/N=C/c3ccc(F)cc3)cn(C3CC3)c12 (stereo unspecified)
18.9

Give its growth value. Item: O=C(NNc1nc2cc(F)ccc2n2cccc12)c1ccncn1
14.6

Give its growth value. Item: COc1ccc(C2CC(c3ccc(Nc4nc(NCCO)nc(N5CCOCC5)n4)cc3)=Nc3c(N)nc(N)nc3N2)cc1 (stereo unspecified)
99.1

Give its growth value. Item: Cc1cc(-c2ccc(Cl)cc2)n(Cc2nnc(SCC(=O)Nc3ccc(S(N)(=O)=O)cc3)n2-c2ccc([N+](=O)[O-])cc2)n1
64.3

Give its growth value. Item: C#C[C@]1(O)CC[C@H]2[C@@H]3CC=C4c5sc(-c6ccc(C)cc6)nc5CC[C@]4(C)[C@H]3CC[C@@]21C
6.37

Give its growth value. Item: COc1ccccc1-n1cc(C#N)c(N)c1C(=O)c1ccc(C)cc1
28.4

Give its growth value. Item: CC1(C)CC[C@]23CC[C@]4(C)[C@H](CC[C@@H]5[C@@]6(C)CCCN(CO)C(C)(C)[C@@H]6CC[C@]54C)[C@H]2[C@H]1OC3
2.86

Give its growth value. Item: O=C(NCCn1ccnc1)c1ccc(-c2nc3ccc4[nH]ncc4c3c3c2CCCC3)cc1
24.1

Give its growth value. Item: CNc1ncc2cc(-c3ccc(-c4ncccc4F)cc3Cl)c(=O)n(CC3OCC(N)CO3)c2n1 (stereo unspecified)
78.8

Give its growth value. Item: O=C(CCC(=O)N1CCOCC1)OCCCCCCSc1ccc([N+](=O)[O-])c2nonc12
6.53

Give its growth value. Item: COc1c(N2CC3CCCNC3C2)c(F)cc2c(=O)c(C(=O)N/N=C/c3ccc(Br)cc3)cn(C3CC3)c12 (stereo unspecified)
-18.5

Give its growth value. Item: COc1cc(-c2nn(C(C)(C)C)cc2-c2ccnc(NCCCNS(=O)(=O)c3ccccc3)n2)ccc1Cl
40.7

Give its growth value. Item: O=C1/C(=C/C=C/c2ccco2)SC(=S)N1c1ccccc1
64.6

Give its growth value. Item: NS(=O)(=O)c1ccc(-n2cc(-c3cccc(NC(=O)c4ccc(N5CCOCC5)c(C(F)(F)F)c4)c3)nn2)cc1
19.3

Give its growth value. Item: Cc1cc2nc(C(Cl)Cl)nc(-c3cccs3)n2n1
35.3

Give its growth value. Item: CCOc1ccc(C(=O)Nc2ncc(Cc3ccc(F)cc3)s2)cc1
9.95

Give its growth value. Item: COc1cc(-c2nn(C(C)(C)C)cc2-c2ccnc(NCCCNS(=O)(=O)c3ccc(F)cc3)n2)ccc1Cl
40.2

Give its growth value. Item: COc1cc(-c2nn(C(C)(C)C)cc2-c2ccnc(NCCCNS(=O)(=O)c3ccc(C)cc3)n2)ccc1Cl
57.7
